B1: library; numbered along this chain (parent)
chain: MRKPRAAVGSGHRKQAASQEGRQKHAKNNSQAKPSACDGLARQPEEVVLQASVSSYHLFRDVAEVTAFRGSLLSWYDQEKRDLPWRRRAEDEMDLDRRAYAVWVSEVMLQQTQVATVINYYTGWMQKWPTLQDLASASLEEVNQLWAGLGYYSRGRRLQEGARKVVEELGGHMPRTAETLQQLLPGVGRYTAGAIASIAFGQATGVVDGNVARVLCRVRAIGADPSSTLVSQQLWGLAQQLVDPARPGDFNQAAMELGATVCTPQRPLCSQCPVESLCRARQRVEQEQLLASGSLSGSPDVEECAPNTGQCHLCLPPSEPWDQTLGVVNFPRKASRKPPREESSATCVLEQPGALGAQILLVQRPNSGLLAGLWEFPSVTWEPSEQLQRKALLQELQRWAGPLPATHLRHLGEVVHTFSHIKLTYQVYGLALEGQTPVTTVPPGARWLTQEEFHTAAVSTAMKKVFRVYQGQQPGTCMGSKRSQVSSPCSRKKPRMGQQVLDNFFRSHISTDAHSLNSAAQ

Variants of: B1
PROTOCOL_DESCRIPTION: 8OG:A repair function score (normalized; synonymous = 0, nonsense = -1) (normalized log-likelihood score); higher = more repair activity (WT-like);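 further: cells sorted at 72 h after reporter transfection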
RUN_PARAMETERS: with 8OG:A DNA repair reporter (GFP) in HEK-293 MUTYH KO cells
MEASUREMENT_NAME: 8OG:A repair function score

>>> print(df.to_string())
    mutant_id             measurement_name   result
 0      F505C  8OG:A repair function score   0.0238
 1        A6C  8OG:A repair function score   -0.117
 2      F466R  8OG:A repair function score   -0.568
 3      W381T  8OG:A repair function score   0.0347
 4      A334H  8OG:A repair function score   0.0495
 5       E46Y  8OG:A repair function score  -0.0657
 6      E303V  8OG:A repair function score  -0.0344
 7      V114S  8OG:A repair function score   -0.184
 8       V53P  8OG:A repair function score   -0.254
 9      S515D  8OG:A repair function score  -0.0425
10      A371W  8OG:A repair function score   -0.408
11       L58E  8OG:A repair function score   0.0056
12      E160F  8OG:A repair function score  -0.0745
13      S384F  8OG:A repair function score   0.0338
14      V468C  8OG:A repair function score  -0.0116
15      A520N  8OG:A repair function score   0.0153
16      C262A  8OG:A repair function score    -1.38
17       D82C  8OG:A repair function score  -0.0489
18      I359H  8OG:A repair function score   -0.143
19      A147Q  8OG:A repair function score  0.00492
20      A177W  8OG:A repair function score   -0.324
21       G39M  8OG:A repair function score     0.24
22      E167G  8OG:A repair function score  0.00335
23      K164C  8OG:A repair function score    -0.21
24      Q265S  8OG:A repair function score  -0.0301
25      Q484D  8OG:A repair function score  -0.0184
26      A445K  8OG:A repair function score   -0.464
27      Y121K  8OG:A repair function score    -1.13
28      L313W  8OG:A repair function score   -0.257
29      H420L  8OG:A repair function score   -0.527
30       L49Y  8OG:A repair function score  -0.0309
31      A305Q  8OG:A repair function score  -0.0168
32      G412I  8OG:A repair function score   -0.788
33       L83I  8OG:A repair function score   -0.196
34      D208C  8OG:A repair function score    -1.02
35      Q386C  8OG:A repair function score   0.0105
36      Q271F  8OG:A repair function score  -0.0282
